molecular target: Protein Mdm4 (Homo sapiens) + E3 ubiquitin-protein ligase Mdm2 (Homo sapiens) (UniProt O15151+Q00987); test: inhibitors of human Mdm2-MdmX association, primary screen, cell-based, luminescence, split luciferase, SaOS-2, uHTS (AID 485346); conditions: SaOS-2 split-luciferase Mdm2/MdmX complementation, at 8 µM, stronger effect = higher value
Sequence (O15151 whole entry, looked up): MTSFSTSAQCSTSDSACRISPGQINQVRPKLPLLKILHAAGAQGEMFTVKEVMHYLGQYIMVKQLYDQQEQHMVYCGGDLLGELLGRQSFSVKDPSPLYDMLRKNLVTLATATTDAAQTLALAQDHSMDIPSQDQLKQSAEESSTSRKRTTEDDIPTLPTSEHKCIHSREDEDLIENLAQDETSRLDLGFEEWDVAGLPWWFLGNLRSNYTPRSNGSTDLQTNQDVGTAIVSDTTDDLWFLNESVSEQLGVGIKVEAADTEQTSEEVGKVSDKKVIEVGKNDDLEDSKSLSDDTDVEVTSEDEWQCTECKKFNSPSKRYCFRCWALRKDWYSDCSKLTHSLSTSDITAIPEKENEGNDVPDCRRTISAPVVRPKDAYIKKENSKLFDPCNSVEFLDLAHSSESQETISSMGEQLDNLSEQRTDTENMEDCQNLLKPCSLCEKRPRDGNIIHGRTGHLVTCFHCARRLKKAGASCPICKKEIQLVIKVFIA
Sequence (Q00987 whole entry, looked up): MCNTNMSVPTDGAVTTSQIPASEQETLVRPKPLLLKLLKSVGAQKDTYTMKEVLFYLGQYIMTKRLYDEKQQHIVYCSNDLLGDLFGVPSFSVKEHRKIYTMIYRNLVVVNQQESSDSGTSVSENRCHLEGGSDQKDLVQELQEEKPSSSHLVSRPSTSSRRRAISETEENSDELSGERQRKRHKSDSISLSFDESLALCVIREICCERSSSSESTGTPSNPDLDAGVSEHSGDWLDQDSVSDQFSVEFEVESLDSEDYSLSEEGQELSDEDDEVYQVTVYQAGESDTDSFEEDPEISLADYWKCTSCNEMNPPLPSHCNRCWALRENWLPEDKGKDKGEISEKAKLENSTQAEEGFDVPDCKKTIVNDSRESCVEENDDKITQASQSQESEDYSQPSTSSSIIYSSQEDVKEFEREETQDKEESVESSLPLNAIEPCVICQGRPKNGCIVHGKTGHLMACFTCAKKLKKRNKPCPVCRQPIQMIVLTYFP
Screen size: about 330,000 compounds; about 10,000 (3%) were called active. This is one part of a sample in which actives are shown more often than they occur.
The label depends only on inhibition: yes if it is at least 10%, no if it is smaller.

Example entries begin here.
CCOc1ccc(C2SCC(=O)Nc3c2c(C)nn3C2CCOC(C)(C)C2)cc1 (stereo not given) | no
CC[N+]1(C)CCCC(OC(=O)C(O)(c2ccccc2)c2ccccc2)C1 (stereo not given) | yes
COC(=O)C1=C(c2ccc(F)cc2OCc2ccccc2)C[C@@H]2CC[C@H]1N2C(=O)NCc1ccc(Cl)cc1 | yes
COC(=O)C1=C(c2cccc(OCc3ccccc3)c2)C[C@@H]2CC[C@H]1N2C(=O)NNCc1ccccc1 | yes
CC[C@H]1CC2CN3CCc4c([nH]c5ccccc45)C(C(=O)OC)(C2)C13 (stereo not given in full) | yes

Prompt: Record `Cc1ccc(Cn2nnnc2CN2CCC(n3nnc4ccccc43)CC2)cc1` ; criterion: inhibition no lower than 10%. Met?
Response: yes

Prompt: Hello, I need to know if `COC(=O)C1=C(c2ccc(F)cc2OCc2ccccc2)C[C@@H]2CC[C@H]1N2C(=O)NCc1ccc(C(C)(C)C)cc1` has measured inhibition not below 10%. Thanks!
Response: yes

Prompt: Threshold query (inhibition >= 10%) on `CC(=C1C(=O)c2ccccc2C1=O)N1CCN(CCN=Cc2c(O)n(C)c(=O)n(C)c2=O)CC1`
Response: no

Prompt: Has COC(=O)N(c1ccc(OC)cc1)P1(=S)OCCC(C)O1 (stereo not given) a recorded inhibition greater than or equal to 10%?
Response: no

Prompt: Decide: inhibition of `O=C1NC(=O)N(CCc2ccc(F)cc2)C(=O)/C1=C/C=C/c1ccccc1` >= 10%?
Response: yes

Where do the numbers come from? From PubChem BioAssay AID485346.
